Hey, just so you know, these numbers are from PubChem BioAssay (NCI).

System: TK-10 renal
assay_summary: NCI tumour cell line growth inhibition, 48 h
assay_endpoint: GI50

molecule	val
COc1cc2cc(Oc3cccc(NC(=O)Nc4cc(C(F)(F)F)cc(C(F)(F)F)c4)c3)c(C)nc2cc1OC	2.32 µM
NCCCN=c1ccc2c3c1c(O)c1c(O)ccc(=O)c1c3[nH]n2CCNCCO	6.59 µM
COc1cc(-c2nn(-c3cccc(NC(=O)CCNc4ccc(N5CCOCC5)cc4)c3)cc2-c2ccncc2)ccc1Cl	3.13 µM
O=C1Nc2ccc3c(c2/C1=C\c1cc2c(cc1Br)OCO2)OCO3	1.52 µM
N#[N+]c1ccc(Nc2ccccc2)cc1	> 50 µg/mL
CSC1=Nc2c(c(C)c(-c3ccccc3)n2COC(CO)CO)C2=NC(=O)CC(C)N12 (centres undefined)	> 100 µM
COc1cc(/C=C2\SC(N3CCCCC3)=NC2=O)ccc1OCCCCCCOc1ccc(/C=C2\SC(N3CCCCC3)=NC2=O)cc1OC	11.5 µM
CC1(C)N=C(N)N=C(N)N1c1cccc(CCc2ccccc2)c1	1.9 µM
COc1cccc(-c2nc3sccn3c2-c2ccnc(NCCCNS(=O)(=O)c3ccccc3)c2)c1	4.27 µM
